Hello, the source for this data is PubChem BioAssay (NCI), in case you need it.

The entries below are paired with their reported growth inhibition.
test: NCI Yeast Anticancer Drug Screen. Data for the wt1 strain (AID 149);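 further: 0% = growth of vehicle-treated wt1 cultures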; details: S. cerevisiae wt1 strain (SPY 50644) growth inhibition; at 3.7 µM; active compounds read high
Compounds without any hit were thinned out: in the full panel of roughly 79,000, 15% have a hit.
Please state the figure in %; there is no need to write the unit.

TEST_SMILES	growth inhibition (%)
O=C(/C(=C/c1ccc(O)cc1)c1ccccc1)c1ccccc1	-13
c1c[nH]c(CN2CCN(Cc3ncc[nH]3)CC2)n1	7
O=[N+]([O-])[O][Sn]([O][Sn]([O][N+](=O)[O-])([c]1ccccc1)[c]1ccccc1)([c]1ccccc1)[c]1ccccc1	-7

Input line: Tell me growth inhibition reported for CC1(C)OC(=O)C(=Cc2ccc([N+](=O)[O-])s2)C(=O)O1
Output line: -33
